- TESTED TARGET: T1, TFAM (no MTS) (Homo sapiens, UniProt Q00059 43-246)
- T1 sequence: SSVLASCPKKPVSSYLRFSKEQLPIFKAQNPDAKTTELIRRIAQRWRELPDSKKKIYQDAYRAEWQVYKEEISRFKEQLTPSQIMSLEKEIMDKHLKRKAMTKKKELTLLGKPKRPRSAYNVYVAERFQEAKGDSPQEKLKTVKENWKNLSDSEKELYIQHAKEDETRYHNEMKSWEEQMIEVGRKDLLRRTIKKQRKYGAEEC
- PROTOCOL TEXT: fluorescence anisotropy; +UVC; Hill n 2.61±0.25; FP: 25 mM HEPES, 10 mM Mg(OAc)2, 25 mM NaOAc, 75 mM KOAc, pH 7.5, 1 nM DNA, TFAM 0-15 nM diluted on ice (read temperature not stated); AFM oligos: on ice, 2 min
- CONDITION SET: protein: recombinant; label: 5' 6-FAM on strand 1; blunt
QUANTITY: Kd (nM)
Answers are plain numbers, in nM.

Task: For the binder ND2_401 +UVC (dsDNA, UVC 1500 J/m2 photolesions (positions undefined)) DNA 1: CAAATGGGCCATTATCGAAGAATTCACAAAAAA DNA 2: TTTTTTGTGAATTCTTCGATAATGGCCCATTTG , give its measured Kd value.
Output: 6.24
